target: T1, IL4R-mFc (human IL-4R extracellular domain fused to murine IgG2a Fc) (human (Homo sapiens)); assay: blocking ELISA: antibody gradient with IL4-his at a fixed concentration on coated IL4R-mFc; bound IL4-his detected with HRP-mouse-anti-his IgG
T1 construct: also called antigen IL4R-mFc
T1 sequence (chain, as listed by the source): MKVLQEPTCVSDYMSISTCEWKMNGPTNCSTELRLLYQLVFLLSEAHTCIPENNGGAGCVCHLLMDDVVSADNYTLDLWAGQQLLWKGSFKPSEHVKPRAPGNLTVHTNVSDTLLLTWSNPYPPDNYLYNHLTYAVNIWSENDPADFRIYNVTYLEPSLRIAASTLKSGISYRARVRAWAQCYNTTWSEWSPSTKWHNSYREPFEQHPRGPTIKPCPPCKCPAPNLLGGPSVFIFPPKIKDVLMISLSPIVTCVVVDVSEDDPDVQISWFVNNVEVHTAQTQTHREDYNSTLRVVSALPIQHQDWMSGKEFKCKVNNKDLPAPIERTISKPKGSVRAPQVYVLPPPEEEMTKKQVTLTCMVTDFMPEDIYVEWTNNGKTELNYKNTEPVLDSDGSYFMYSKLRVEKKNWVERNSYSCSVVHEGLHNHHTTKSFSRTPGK
Examples of binders with documented IC50 (read off the curve) follow.

{"binder": "L28C9-IgG4 (antibody, V domains shown, also called S1E6 light chain mutant L28C9) VH: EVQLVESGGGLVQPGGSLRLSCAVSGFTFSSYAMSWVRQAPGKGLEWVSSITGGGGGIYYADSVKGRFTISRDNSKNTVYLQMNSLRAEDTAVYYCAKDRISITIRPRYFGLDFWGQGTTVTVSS VL: DIVMTQSPLSLPVTPGEPASISCRSSQNVVYGNGYNYLDWYLQKSGQSPQLLIYLGNNVAAGVPDRFSGSGSGTDFTLKISRVEAEDVGFYYCMQSLKAPYTFGQGTKLEIKR", "IC50 (read off the curve)": "~4 nM"}
{"binder": "S1E6-IgG4 (antibody, V domains shown, also called monoclonal antibody S1E6) VH: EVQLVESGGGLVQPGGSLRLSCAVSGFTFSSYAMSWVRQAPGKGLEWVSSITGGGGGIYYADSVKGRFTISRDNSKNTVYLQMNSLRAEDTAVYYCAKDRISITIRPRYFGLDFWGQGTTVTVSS VL: DIVMTQSPLSLPVTPGEPASISCRSSRSVLYGNGYNYLDWYLQKSGQSPQLLIYLGTNVAAGVPDRFSGSGSGTDFTLKISRVEAEDVGFYYCMQSLRTPYTFGQGTKLEIKR", "IC50 (read off the curve)": "~20 nM"}
{"binder": "L18D7-IgG4 (antibody, V domains shown, also called S1E6 light chain mutant L18D7) VH: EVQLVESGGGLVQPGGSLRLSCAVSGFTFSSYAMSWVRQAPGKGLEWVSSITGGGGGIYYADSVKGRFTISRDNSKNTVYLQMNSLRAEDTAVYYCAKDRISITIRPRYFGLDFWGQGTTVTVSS VL: DIVMTQSPLSLPVTPGEPASISCRSSQSLLYSIGYNYLDWYLQKSGQSPQLLIYLGSNRASGVPDRFSGSGSGTDFTLKISRVEAEDVGFYYCMQSFKAPYTFGQGTKLEIKR", "IC50 (read off the curve)": "~10 nM"}

Field: next binder
Qu. So what does the record say about IC50 (read off the curve) for L28G5-IgG4 (antibody, V domains shown, also called S1E6 light chain mutant L28G5) VH: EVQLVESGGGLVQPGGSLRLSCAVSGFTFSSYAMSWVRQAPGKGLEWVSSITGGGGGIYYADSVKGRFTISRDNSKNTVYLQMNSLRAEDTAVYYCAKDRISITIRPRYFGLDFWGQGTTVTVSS VL: DIVMTQSPLSLPVTPGEPASISCRSSRNVIYGNGYNYLDWYLQKSGQSPQLLIYLGNNVAAGVPDRFSGSGSGTDFTLKISRVEAEDVGFYYCMQSLQAPYTFGQGTKLEIKR ?
Ans. ~8 nM

All figures here come from patent US20220081485A1.
